FYI, the data here is from ChEMBL document CHEMBL1126868.

- Species on record: Homo sapiens
- experiment-notes: Inhibition of human platelet aggregation induced by ADP after 3 min incubation with platelet rich plasma
- Type: functional
- experimental-conditions: 0.05 h
pIC50: −log10 of the molar value.
assay-readout: pIC50

Illustrative cases are given below, each with its answer.
[[record]]
input_smiles = "Cl.Oc1nc2cc3cc(OCCCc4nnnn4C4CCN(CC5CCCC5)CC4)ccc3[nH]c-2n1"
assay_readout = "pIC50"
recorded_result = 8.05

[[record]]
input_smiles = "Cl.Oc1nc2cc3cc(OCCCCc4nnnn4C4CCN(Cc5ccc(F)cc5)CC4)ccc3[nH]c-2n1"
assay_readout = "pIC50"
recorded_result = 7.29


P: Cl.Oc1nc2cc3cc(OCCCc4nnnn4C4CCN(CCc5ccccc5)CC4)ccc3[nH]c-2n1
Q: Cl.O=C(NCCCOc1ccc2[nH]c3nc(O)nc-3cc2c1)N1CCC(N2CCCCC2)CC1
Please compare: P and Q . Report which one has the smaller pIC50 value. Write the label of whichever entry you select.
Q

I: Cl.Oc1nc2cc3cc(OCCCCc4nnnn4C4CCNCC4)ccc3[nH]c-2n1
II: Cl.O=S(=O)(CCCOc1ccc2[nH]c3nc(O)nc-3cc2c1)N1CCN(c2nc3ccccc3o2)CC1
III: Cl.O=C(NCCCOc1ccc2[nH]c3nc(O)nc-3cc2c1)N1CCN(CC2CCCCC2)CC1
IV: CCC(CC)CN1CCC(n2nnnc2CCCOc2ccc3[nH]c4nc(O)nc-4cc3c2)CC1.Cl
Rank descending by pIC50. Reply format: the labels, ordered as requested.
IV, III, II, I
(IV: 7.92, III: 7.14, II: 5.62, I: 5.27)

* * *

- experiment-notes: Aqueous solubility
- Format: physicochemical
- experimental-conditions: read-out: S
assay-readout: solubility (µg/mL)

[[record]]
input_smiles = "Cl.O=S(=O)(CCCCOc1ccc2[nH]c3nc(O)nc-3cc2c1)C1CCN(Cc2ccccc2)CC1"
recorded_result = 5000


a: Cl.Oc1nc2cc3cc(OCCCCc4nnnn4C4CCNCC4)ccc3[nH]c-2n1
b: Cl.Cl.O=C(NCCCOc1ccc2[nH]c3nc(O)nc-3cc2c1)N1CCN(Cc2ccc(Cl)cc2)CC1
For the two items a and b , which reports the higher solubility value? Answer by quoting the chosen item's label.
a
(a: 5000 µg/mL, b: 200 µg/mL)

* * *

- experimental-target: Phosphodiesterase 3 (Homo sapiens, UniProt Q14432+Q13370)
- experiment-notes: Inhibition of human blood platelet c-AMP phosphodiesterase
- Assay type: functional
assay-readout: pIC50
// scale note: pIC50 = -log10(conc_M); give the bare number

Please tell me: pIC50 of Cl.O=S(=O)(CCCOc1ccc2[nH]c3nc(O)nc-3cc2c1)C1CCN(Cc2ccc(F)cc2)CC1 , system Phosphodiesterase 3 (Homo sapiens, UniProt Q14432+Q13370)?
9.00

* * *

- experiment-notes: Aqueous solubility
- Format: physicochemical
- experimental-conditions: read-out: S
assay-readout: solubility (µg/mL)

P: CCC(CC)CN1CCC(S(=O)(=O)CCCCOc2ccc3[nH]c4nc(O)nc-4cc3c2)CC1.Cl
Q: Cl.O=C(NCCCOc1ccc2[nH]c3nc(O)nc-3cc2c1)N1CCN(CC2CCCC2)CC1
Sort P and Q by solubility descending and give the first. Selection: enter the item's label.
P

* * *

- Species: Homo sapiens
- experiment-notes: Inhibition of human platelet aggregation induced by ADP after 3 min incubation with platelet rich plasma
- Type: functional
- experimental-conditions: 0.05 h
pIC50: −log10 of the molar value.
assay-readout: pIC50

[[record]]
compound = "Cl.O=C(NCCCOc1ccc2[nH]c3nc(O)nc-3cc2c1)N1CCN(c2ncccn2)CC1"
recorded_result = 6.49

[[record]]
compound = "Cl.O=S(=O)(CCCOc1ccc2[nH]c3nc(O)nc-3cc2c1)N1CCN(c2nc3ccccc3s2)CC1"
recorded_result = 5.31

[[record]]
compound = "Cl.O=S(=O)(CCCCOc1ccc2[nH]c3nc(O)nc-3cc2c1)C1CCN(Cc2ccccc2)CC1"
recorded_result = 7.38

[[record]]
compound = "Cl.O=S(=O)(CCCOc1ccc2[nH]c3nc(O)nc-3cc2c1)C1CCN(CC2CCCCO2)CC1 (centres undefined)"
recorded_result = 7.47


a: CCC(CC)CN1CCC(S(=O)(=O)CCCCOc2ccc3[nH]c4nc(O)nc-4cc3c2)CC1.Cl
b: CCOC(=O)N1CCC(S(=O)(=O)CCCCOc2ccc3[nH]c4nc(O)nc-4cc3c2)CC1
c: CCC(CC)CN1CCN(C(=O)NCCCOc2ccc3[nH]c4nc(O)nc-4cc3c2)CC1.Cl
d: Cl.O=C(NCCCOc1ccc2[nH]c3nc(O)nc-3cc2c1)N1CCN(CC2CCCC2)CC1
e: Cl.O=S(=O)(CCCOc1ccc2[nH]c3nc(O)nc-3cc2c1)N1CCNCC1
Write the entries in order, lowest recorded pIC50 first. Provide your answer as the labels ordered per the instruction.
e, b, d, c, a
(e: 4.81, b: 6.39, d: 7.03, c: 7.38, a: 7.68)

* * *

- experiment-notes: half-life (t1/2 min)
- Assay type: ADME
assay-readout: half-life (h)

Worked cases, answers included:
[[record]]
input_smiles = "CCC(CC)CN1CCN(S(=O)(=O)CCCOc2ccc3[nH]c4nc(O)nc-4cc3c2)CC1.Cl"
assay_readout = "half-life"
readout_units = "h"
recorded_result = 2.87

[[record]]
input_smiles = "Cl.O=C(NCCCOc1ccc2[nH]c3nc(O)nc-3cc2c1)N1CCN(Cc2ccc(F)cc2)CC1"
assay_readout = "half-life"
readout_units = "h"
recorded_result = 1.08

[[record]]
input_smiles = "Cl.O=S(=O)(CCCOc1ccc2[nH]c3nc(O)nc-3cc2c1)N1CCN(Cc2ccc(F)cc2)CC1"
assay_readout = "half-life"
readout_units = "h"
recorded_result = 6.75

[[record]]
input_smiles = "Cl.Oc1nc2cc3cc(OCCCc4nnnn4C4CCN(Cc5ccccc5)CC4)ccc3[nH]c-2n1"
assay_readout = "half-life"
readout_units = "h"
recorded_result = 15.8

[[record]]
input_smiles = "CCC(CC)CN1CCC(S(=O)(=O)CCCOc2ccc3[nH]c4nc(O)nc-4cc3c2)CC1.Cl"
assay_readout = "half-life"
readout_units = "h"
recorded_result = 6.08

[[record]]
input_smiles = "CCC(CC)CN1CCC(n2nnnc2CCCOc2ccc3[nH]c4nc(O)nc-4cc3c2)CC1.Cl"
assay_readout = "half-life"
readout_units = "h"
recorded_result = 3.37

[[record]]
input_smiles = "Cl.O=S(=O)(CCCOc1ccc2[nH]c3nc(O)nc-3cc2c1)N1CCN(CC2CCCCC2)CC1"
assay_readout = "half-life"
readout_units = "h"
recorded_result = 2.02


A: Cl.O=C(NCCCOc1ccc2[nH]c3nc(O)nc-3cc2c1)N1CCN(Cc2ccccc2)CC1
B: Cl.O=S(=O)(CCCOc1ccc2[nH]c3nc(O)nc-3cc2c1)C1CCN(CC2CCCCC2)CC1
Would you mind telling me which has the lower recorded half-life between A and B ? Please respond with the label that marks your chosen entry.
A

* * *

- experiment-notes: Aqueous solubility
- Type: physicochemical
- experimental-conditions: read-out: S
assay-readout: solubility

[[record]]
input_smiles = "CCC(CC)CN1CCC(S(=O)(=O)CCCOc2ccc3[nH]c4nc(O)nc-4cc3c2)CC1.Cl"
recorded_result = "< 10 mg/mL"

[[record]]
input_smiles = "Cl.O=S(=O)(CCCOc1ccc2[nH]c3nc(O)nc-3cc2c1)N1CCN(Cc2ccccc2)CC1"
recorded_result = "> 20 mg/mL"

[[record]]
input_smiles = "Cl.O=C(NCCCOc1ccc2[nH]c3nc(O)nc-3cc2c1)N1CCN(c2ncccn2)CC1"
recorded_result = "0.1 mg/mL"


Now look at this entry.
Please give the measured solubility for this compound: Cl.O=S(=O)(CCCOc1ccc2[nH]c3nc(O)nc-3cc2c1)C1CCN(CCc2ccccc2)CC1
< 5 mg/mL

* * *

- experimental-target: Phosphodiesterase 3 (Homo sapiens, UniProt Q14432+Q13370)
- experiment-notes: Inhibition of human platelet aggregation cAMP PDE in vitro
- Format: functional
assay-readout: IC50 (nM)

[[record]]
input_smiles = "Cl.O=C(NCCCOc1ccc2[nH]c3nc(O)nc-3cc2c1)N1CCN(Cc2ccccc2)CC1"
experimental_target = "Phosphodiesterase 3 (Homo sapiens, UniProt Q14432+Q13370)"
recorded_result = 1.11

[[record]]
input_smiles = "Cl.Oc1nc2cc3cc(OCCCc4nnnn4C4CCN(CC5CCCCC5)CC4)ccc3[nH]c-2n1"
experimental_target = "Phosphodiesterase 3 (Homo sapiens, UniProt Q14432+Q13370)"
recorded_result = 0.81


A: Cl.O=S(=O)(CCCOc1ccc2[nH]c3nc(O)nc-3cc2c1)N1CCN(Cc2ccc(F)cc2)CC1
B: Cl.O=C(NCCCOc1ccc2[nH]c3nc(O)nc-3cc2c1)N1CCN(Cc2ccc(F)cc2)CC1
In the pair A and B , the larger recorded IC50 belongs to which? Select an item and report its label.
A
(A: 4.96 nM, B: 2.78 nM)

P: CCC(CC)CN1CCN(S(=O)(=O)CCCOc2ccc3[nH]c4nc(O)nc-4cc3c2)CC1.Cl
Q: CCC(CC)CN1CCC(n2nnnc2CCCOc2ccc3[nH]c4nc(O)nc-4cc3c2)CC1.Cl
Of P versus Q , which is the one with smaller reported IC50? Reply with the label of the item you choose.
Q

A: Cl.O=S(=O)(CCCOc1ccc2[nH]c3nc(O)nc-3cc2c1)C1CCN(Cc2ccccc2)CC1
B: Cl.O=S(=O)(CCCOc1ccc2[nH]c3nc(O)nc-3cc2c1)N1CCN(CC2CCCCC2)CC1
Of A and B , which shows the smaller IC50 value? State your choice using its label.
A

a: Cl.O=S(=O)(CCCOc1ccc2[nH]c3nc(O)nc-3cc2c1)N1CCN(Cc2ccccc2)CC1
b: Cl.Oc1nc2cc3cc(OCCCc4nnnn4C4CCN(Cc5ccc(F)cc5)CC4)ccc3[nH]c-2n1
// returns a or b , whichever has the lower IC50 Choose, then provide that item's label.
b
(b: 1.03 nM, a: 5.42 nM)

P: CCC(CC)CN1CCN(C(=O)NCCCOc2ccc3[nH]c4nc(O)nc-4cc3c2)CC1.Cl
Q: Cl.Oc1nc2cc3cc(OCCCc4nnnn4C4CCN(Cc5ccccc5)CC4)ccc3[nH]c-2n1
Rank P against Q by their IC50 values and give the higher one. Response format: the label of the selected entry.
P
